The measurements presented in this section are drawn from ChEMBL document CHEMBL1201862.

- Test system: H4
- experimentNotes: Luminescence Cell-Based Dose Response HTS to Identify Activators of 5'UTR Stem-Loop Driven Prion Protein mRNA Translation in H4 Neuroglioblastoma Cells. [Related pubchem assays: 1829 (Project Summary), 1814 (Primary HTS)]
- Assay type: functional
- condition: Homo sapiens
The source made the active and inactive calls. Cut-off read from the data, not from the text of the source: actives have a measured EC50 and inactives only a lower limit.
Record form. Attribute: EC50. Fill in for each entry.

Item under review: "CCN1/C(=C\c2ccc3ccccc3[n+]2CC)Sc2cc(C)ccc21" . Reported EC50?
> 120 µM (not active)

Which measured EC50 value corresponds to "Clc1cccc(Cl)c1/C=C/c1cc[nH]n1" ?
27 µM (active)

Sample "COc1ccc(C2=C/C(=C\c3ccccc3OC(C)=O)C(=O)O2)cc1" — what was its EC50?
48.4 µM (active)

Suppose we examine the molecule "Oc1c2c(nc3cc(-c4ccccc4Cl)nn13)CCS2" ; what EC50 value has been reported?
21.7 µM (active)

Reported EC50 for "S=C(NCCN1CCOCC1)Nc1ccc(-c2nc3ccccc3[nH]2)cc1" : what is it?
16.5 µM (active)

Find the recorded EC50 belonging to "O=C(CCc1ccccc1)Nc1ccc(Cl)cn1" and report it.
19.8 µM (active)
